- System: M14 melanoma
- test_method_notes: NCI tumour cell line growth inhibition, 48 h
Where a SMILES comes first, the peptide text is derived from it. [ ]: non-standard residue; d: D form. The star is where a group is joined. Hyp = O=C(O)[CH]1C[CH](O)CN1; Cbz = O=C(OCc1ccccc1)*
measure_name: TGI

Solved cases below.
O=C(Cn1c2c(c3ccccc31)CCCC2)N1CCOCC1 ... > 100 µM
Fc1cccc(-c2nc(-c3c[nH]c4ncccc34)cs2)c1 ... > 100 µM
COc1ccc(-n2nc(C(=O)NCC(=O)Nc3nc4cc(OC)ccc4s3)c3ccccc3c2=O)cc1 ... > 42.9 µM
Cc1ccc(Nn2c(SCC(=O)Nc3nc(-c4ccccc4)cs3)nc(C)c2C)cc1 ... 48.6 µM
Clc1ccc(C2=Cc3nc2c(-c2ccccc2)c2ccc([nH]2)c(-c2ccccc2)c2nc(c(-c4ccccc4)c4ccc([nH]4)c3-c3ccccc3)C=C2)cc1 ... > 62.5 µM
COc1ccc(/C=C2/C(=O)N(/C=C3\C(=O)Oc4ccccc4C3=O)C(=NC(C)=O)N2C)cc1OC ... > 100 µM
NC(=O)CNC(=O)C1CC(O)CN1C(=O)C1CCCN1C(=O)OCc1ccccc1 (stereo not drawn) (Cbz-Pro-[Hyp]-Gly-NH2; configuration not given here) ... > 100 µM
COC(=O)CCC(=O)Nc1cc(C)ccc1C ... > 100 µM
O=C(Cc1ccc(-c2ccc(OCCN3CCOCC3)cc2)cn1)NCc1ccccc1 ... 1.76 µM
CN1CCN(c2ccc3nc(-c4ccc5nc(CCCc6ccc(N(CCCl)CCCl)cc6)[nH]c5c4)[nH]c3c2)CC1 ... > 100 µM

get_value(item= CC(=O)Nc1ccc(S(=O)(=O)N/N=C(\C)CN2C(=O)c3ccccc3C2=O)cc1 , readout=TGI) returns > 100 µM

get_value(item= COc1ccc2c(ccc3oc([N+](=O)[O-])cc32)c1 , readout=TGI) returns 0.186 µM

get_value(item= COc1cc([N+](=O)[O-])cc2c1NC(=O)C2(C)SC (centres undefined) , readout=TGI) returns > 100 µM

get_value(item= CCOC(=O)c1cccc(N=Nc2ncc(/C=C/C(=O)OC)[nH]2)c1 , readout=TGI) returns 76 µM
